Experiment: inhibitors of the yeast RAM network, pilot screen, dse1pr::URA3 reporter, 5-FOA selection (AID 869);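 note: 0% = DMSO wells with no growth and 100% = 10 µM 1-NA-PP1 with full growth; RAM network block rescues cells from 5-FOA so hits raise OD615 growth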
Conditions: S. cerevisiae dse1pr::URA3 5-FOA growth, OD615, 2 d; at 10 µM; active compounds read high; strain carries analog-sensitive mutant Cbk1 kinase

| compound | unit_symbol | inhibition |
| --- | --- | --- |
| CN1CCc2c(sc(NC(=O)c3ccc(S(=O)(=O)N4CCOCC4)cc3)c2C(N)=O)C1 | % | -0.19 |
| COc1cc(OC)c(C2CC(=O)N3CN(C)CSC3=C2C#N)cc1OC (configuration not stated) | % | 1.06 |
| Cc1cccc(C2Nc3ccccc3C(=O)N2CCc2ccccc2)n1 (configuration not stated) | % | 2.09 |
| Cc1noc(C(=O)N2CC3(C)CC2CC(C)(C)C3)c1Cl (configuration not stated) | % | -0.145 |
| Cn1c(=O)[nH]c(=O)c2c1nc(N1CCN(c3ccccc3)CC1)n2CCSc1ncccn1 | % | 0.42 |
| Nc1nc2c(c3c1c(=O)oc1ccccc13)CCCCC2 | % | 2.28 |
| COc1ccc(C2C/C(=N\O)C(C)(C)O2)cc1 (configuration not stated) | % | 1.06 |
| O=C(O)c1ccc(NS(=O)(=O)c2ccc3c(c2)OCCO3)cc1 | % | 0.975 |
| CC1=Nc2ccc(C)cc2N(Cc2ccccc2)C(=O)C1 | % | 0.545 |
| Cc1onc(-c2ccccc2Cl)c1C(=O)NC1CCS(=O)(=O)C1 (configuration not stated) | % | 2.96 |
| COc1ccc(NC(=O)c2cc3ccccc3o2)cc1 | % | 0.89 |
| CC(=O)Nc1cc2ccc(OC(C)=O)cc2oc1=O | % | 1.62 |
